Tested on: Cancer cell lines
EXPERIMENT DESCRIPTION: Concentration required to inhibit total growth of cells in 60 cancer cell lines
Assay type: functional
CONDITION DESCRIPTION: read-out: Log TGI (converted)
MEASUREMENT NAME: log10 of TGI (log10 of the value in nM)

O=C1C(N2CC2)=CC(=O)c2nc(-c3ccccc3)ccc21 :: 2.71
O=C1C(NCCCl)=CC(=O)c2nc(-c3ccccc3)ccc21 :: 2.51
O=C1C=C(N2CC2)C(=O)c2nc(-c3ccccc3)ccc21 :: 3.25
O=C1/C(=N/CCO)C=C(O)c2nc(-c3ccccc3)ccc21 :: 4.30
O=C1C=C(N2CC2)C(=O)c2nc(-c3ccc4ccccc4c3)ccc21 :: 4.03
O=C1C(N2CC2)=CC(=O)c2nc(-c3ccccn3)ccc21 :: 3.39
O=C1C(N2CC2)=CC(=O)c2nc(-c3ccc4ccccc4c3)ccc21 :: 3.03
